Assay: PK in normal beagle dogs, IV and oral gavage
Format: in vivo
Conditions: female, dog, plasma, po, 1 mg/kg, Dog #2, PO w/ fast (fasted female dog), read-out: F (oral bioavailability)
OBSERVED_PROPERTY: bioavailability

Given the compound NS(=O)(=O)c1cccc2c1C(=O)C=C(Nc1cccnc1)C2=O , what is its reported bioavailability?
44%

---

Experiment: Plasma PK profile in mice
Type: in vivo
Details: ICR, mouse, 5 mg/kg IV
OBSERVED_PROPERTY: AUC (nM·h)
The response must be a number in nM·h with no trailing unit.

Given the compound NS(=O)(=O)c1cccc2c1C(=O)C=C(Nc1cccnc1)C2=O , what is its reported AUC?
1140
